experimental_target: T1, Human CD137 ECD (human)
T1 construct: entry includes C-terminal His-tag and biotin acceptor peptide; also called human CD137 extracellular domain; 4-1BB
T1 sequence (chain, as listed by the source limits assumed): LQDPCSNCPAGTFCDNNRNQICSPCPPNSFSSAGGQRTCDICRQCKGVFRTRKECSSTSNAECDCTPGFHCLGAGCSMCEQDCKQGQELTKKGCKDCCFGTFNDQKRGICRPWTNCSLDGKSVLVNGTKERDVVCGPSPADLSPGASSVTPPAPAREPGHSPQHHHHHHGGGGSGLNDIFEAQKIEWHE
test_description: Biacore SPR, vs parent H183/L072
Listed below: fold change of affinity values for each entry.

{"binder": "H183/L072 VL P56Q (antibody, name in Kabat numbering, V domains shown, Dual-Ig) VH: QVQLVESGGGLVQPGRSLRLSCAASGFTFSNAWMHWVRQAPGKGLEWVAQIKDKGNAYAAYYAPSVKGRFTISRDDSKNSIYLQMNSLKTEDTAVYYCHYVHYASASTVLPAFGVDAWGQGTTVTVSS VL: DIVMTQSPLSLPVTPGEPASISCQASQELVHMNRNTYLHWYQQKPGQAPRLLIYKVSNRFQGVPDRFSGSGSGTDFTLKISRVEAEDVGVYYCAQGTSVPFTFGQGTKLEIK", "fold change of affinity, fold": 0.2}
{"binder": "H183/L072 VL T31M (antibody, name in Kabat numbering, V domains shown, Dual-Ig) VH: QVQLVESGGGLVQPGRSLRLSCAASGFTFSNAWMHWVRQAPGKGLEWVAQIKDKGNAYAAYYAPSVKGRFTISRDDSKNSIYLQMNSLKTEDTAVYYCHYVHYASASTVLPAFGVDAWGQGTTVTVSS VL: DIVMTQSPLSLPVTPGEPASISCQASQELVHMNRNMYLHWYQQKPGQAPRLLIYKVSNRFPGVPDRFSGSGSGTDFTLKISRVEAEDVGVYYCAQGTSVPFTFGQGTKLEIK", "fold change of affinity, fold": 0.3}
